PROTOCOL: Pharmacokinetics (PK) evaluation in mice
Assay type: in vivo
EXPERIMENTAL_SETUP: mouse, plasma; ICR mice, po 10 mg/kg
PARAMETER_MEASURED: AUC(0-t) (ng·h/mL)
The reply should contain only the number, in ng·h/mL.

CCOC(=O)C1=C(CN2CCN3C(=O)N(C45CC(CC(=O)O)(C4)C5)C[C@@H]3C2)NC(c2nccs2)=N[C@H]1c1cccc(F)c1C = 1860

Let us move to another entry and its AUC(0-t).
Task item: Query AUC(0-t) for `CCOC(=O)C1=C(CN2CCN3C(=O)N(C45CCC(CC(=O)O)(C4)C5)C[C@@H]3C2)NC(c2nccs2)=N[C@H]1c1cccc(F)c1C`
Reply: 4210

---

Test system: HBV (hepatitis B virus) in HepG2.2.15 cells
PROTOCOL: Cell-based anti-viral activity assay (HBV DNA in supernatant by quantitative PCR)
EXPERIMENTAL_SETUP: 120 h, anti-HBV activity, HepG2.2.15 cells, 5 days, read-out: EC50 (HepG2.2.15)
Item-by-item account of EC50
Numbers only; they are read as nM.

CCOC(=O)C1=C(CN2CCN3C(=O)N(C45C6C7C4C4C5C6C74C(=O)O)C[C@@H]3C2)NC(c2nccs2)=N[C@H]1c1cccc(F)c1C (stereo partly drawn) [Compound 61] = 17
CCOC(=O)C1=C(CN2CCN3C(=O)N(C45CC(C(O)C(=O)O)(C4)C5)C[C@@H]3C2)NC(c2nccs2)=N[C@H]1c1cccc(F)c1C (stereo partly drawn) [Compound 50] = 3
CCOC(=O)CC12CC(N3C[C@@H]4[C@@H](COC)N(CC5=C(C(=O)OCC)[C@H](c6cccc(F)c6C)N=C(c6nccs6)N5)CCN4C3=O)(C1)C2 [Compound 44] = 183
CCOC(=O)C1=C(CN2CCN3C(=O)N(C45CC(C(=O)NC)(C4)C5)C[C@@H]3C2)NC(c2nccs2)=N[C@H]1c1cccc(F)c1C [Compound 26] = 5
CCOC(=O)C1=C(CN2CCN3C(=O)N(CC45CC(C(=O)O)(C4)C5)C[C@@H]3C2)NC(c2nccs2)=N[C@H]1c1cccc(F)c1C [Compound 5] = 73
COC(=O)C1=C(CN2CCN3C(=O)N(C45CC(CC(=O)O)(C4)C5)C[C@@H]3C2)NC(c2nccs2)=N[C@H]1c1ccc(F)cc1Cl [Compound 38] = 43
CCOC(=O)C1=C(CN2CCN3C(=O)N(C45CC(C(OC)C(=O)O)(C4)C5)C[C@@H]3C2)NC(c2nccs2)=N[C@H]1c1cccc(F)c1C (stereo partly drawn) [Compound 51] = 139
CCOC(=O)C1=C(CN2CCN3C(=O)N(C45CCC(C(=O)O)(CC4)CC5)C[C@@H]3C2)NC(c2nccs2)=N[C@H]1c1cccc(F)c1C [Compound 52] = 3

Task item: Give the measured EC50 for CCOC(=O)C1=C(CN2CCN3C(=O)N(C45CC(CS(C)(=O)=O)(C4)C5)C[C@@H]3C2)NC(c2nccs2)=N[C@H]1c1cccc(F)c1C [Compound 8]
Reply: 4

Task item: Answer with the recorded EC50 for the compound listed here: CCOC(=O)C1=C(CN2CCN3C(=O)N(C45CCC(C(=O)O)(CC4)CC5)C[C@@H]3C2)NC(c2nccs2)=N[C@H]1c1ccc(F)cc1C [Compound 53]
Reply: 9

Task item: Quick one: give measured EC50 for CCOC(=O)C1=C(CN2CCN3C(=O)N(C45CC(CO)(C4)C5)C[C@@H]3C2)NC(c2nccs2)=N[C@H]1c1cccc(F)c1C [Compound 2]
Reply: 3

Task item: In one line, give reported EC50 of the entry CCOC(=O)C1=C(CN2CCN3C(=O)N(C45CC(CC#N)(C4)C5)C[C@@H]3C2)NC(c2nccs2)=N[C@H]1c1cccc(F)c1C [Compound 20] .
Reply: 3

---

Test system: HBV (hepatitis B virus) in HepG2.2.15 cells
PROTOCOL: Cell-based anti-viral activity assay (HBV DNA in supernatant by quantitative PCR)
EXPERIMENTAL_SETUP: 120 h, anti-HBV activity, HepG2.2.15 cells, 5 days, read-out: EC50 (HepG2.2.15)
The entries below come with measured EC50 values attached.
All answers are understood in nM, so give the number only.

Consider the following illustrative entries.
CCOC(=O)C1=C(CN2CCN3C(=O)N(C45CC(CC(=O)O)(C4)C5)C[C@@H]3C2)NC(c2nccs2)=N[C@H]1c1ccc(F)cc1Cl [Compound 35] = 28
CCOC(=O)C1=C(CN2CCN3C(=O)N(C45CC(C(N)=O)(C4)C5)C[C@@H]3C2)NC(c2nccs2)=N[C@H]1c1cccc(F)c1C [Compound 7] = 7
CCOC(=O)C1=C(CN2CCN3C(=O)N(C45CC(C(=O)N6CCCC6)(C4)C5)C[C@@H]3C2)NC(c2nccs2)=N[C@H]1c1cccc(F)c1C [Compound 6] = 8
CCOC(=O)C1=C(CN2CCN3C(=O)N(C45CC(C(=O)N6CCOCC6)(C4)C5)C[C@@H]3C2)NC(c2nccs2)=N[C@H]1c1cccc(F)c1C [Compound 27] = 6

Now, please, on to the next compound.
Task item: Would you please give the reported EC50 of CCOC(=O)C1=C(CN2CCN3C(=O)N(C45CCC(CC(=O)O)(C4)C5)C[C@@H]3C2)NC(c2nccs2)=N[C@H]1c1cccc(F)c1C [Compound 58] with HBV (hepatitis B virus) in HepG2.2.15 cells?
Reply: 6

---

PROTOCOL: Pharmacokinetics (PK) evaluation in mice
Assay type: in vivo
EXPERIMENTAL_SETUP: mouse, plasma; ICR mice, po 10 mg/kg, 1 hour; read-out: Plasm drug conc.
PARAMETER_MEASURED: concentration at 1 h
I'd appreciate it if you included the unit after the number.

CCOC(=O)C1=C(CN2CCN3C(=O)N(C45CC(CC(=O)O)(C4)C5)C[C@@H]3C2)NC(c2nccs2)=N[C@H]1c1cccc(F)c1C [Compound 22] = 826 ng/mL

Task item: Please look at this compound and report its concentration at 1 h: CCOC(=O)C1=C(CN2CCN3C(=O)N(C45CCC(CC(=O)O)(C4)C5)C[C@@H]3C2)NC(c2nccs2)=N[C@H]1c1cccc(F)c1C [Compound 58]
Reply: 1540 ng/mL

---

Recorded pEC50, one value per entry.
System: HBV (hepatitis B virus) in HepG2.2.15 cells
PROTOCOL: Cell-based anti-viral activity assay (HBV DNA in supernatant by quantitative PCR)
EXPERIMENTAL_SETUP: 120 h, anti-HBV activity, HepG2.2.15 cells, 5 days, read-out: EC50 (HepG2.2.15)
Field pEC50 (float): negative decimal logarithm of the concentration in molar.

Consider the following illustrative entries.
CCOC(=O)C1=C(CN2CCN3C(=O)N(C45CC(NS(C)(=O)=O)(C4)C5)C[C@@H]3C2)NC(c2nccs2)=N[C@H]1c1cccc(F)c1C [Compound 9] = 8.40
CCOC(=O)C1=C(CN2CCN3C(=O)N(C45CC(N6CCCC6=O)(C4)C5)C[C@@H]3C2)NC(c2nccs2)=N[C@H]1c1cccc(F)c1C [Compound 13] = 8.10
CCOC(=O)C1=C(CN2CCN3C(=O)N(C45CC(COC)(C4)C5)C[C@@H]3C2)NC(c2nccs2)=N[C@H]1c1cccc(F)c1C [Compound 3] = 8.40

Task item: Tell us which pEC50 value is on record for CCOC(=O)C1=C(CN2CCN3C(=O)N(C45CC(CC(C)(C)C(=O)O)(C4)C5)C[C@@H]3C2)NC(c2nccs2)=N[C@H]1c1cccc(F)c1C [Compound 4]
Reply: 8.10

Task item: Tell me pEC50 reported for CCOC(=O)C1=C(CN2CCN3C(=O)N(C45CC(CF)(C4)C5)C[C@@H]3C2)NC(c2nccs2)=N[C@H]1c1cccc(F)c1C [Compound 18]
Reply: 8.52

Task item: Please report pEC50 for the following molecule: CCOC(=O)C1=C(CN2CCN3C(=O)N(C45CC(C(C)C(=O)O)(C4)C5)C[C@@H]3C2)NC(c2nccs2)=N[C@H]1c1cccc(F)c1C (stereo partly shown) [Compound 30]
Reply: 7.96

Task item: For the molecule CCOC(=O)C1=C(CN2CCN3C(=S)N(C45CC(C(=O)O)(C4)C5)C[C@@H]3C2)NC(c2nccs2)=N[C@H]1c1cccc(F)c1C [Compound 32] , give its measured pEC50 value.
Reply: 7.52
